Test: yeast display, Sf9 membrane polyspecificity reagent, FACS + sequencing; frameworks hold sequencing errors
Readout: polyreactivity (PSR sort gate)

Field: example entries. Status: answers known.
| Residue String | Readout | Result |
| --- | --- | --- |
| QVQLVESGGGLVQAGGSLRLSCAASGYTFLIYAMGGYRQAPGKERELVASISRSGGSTYYADSVKGRFTISRDNAKKTVYLQMNSLKPEDTAVYYCAARNPYRYFYNYEYWGQGTQVTVSS | polyreactivity (PSR sort gate) | low polyreactivity |
| QVQLGESGGGLVQAGGSLRLSCAGSGRTFQHYFMGWYREAPGKDRELVASITNDDSTNYADSVKGLFTISRDNAKNTVYLQMNRLKPEDTAVYYCAADWTDVVPGYDYWGQGTQVTVSS | polyreactivity (PSR sort gate) | low polyreactivity |
| QVQLVESGGGLVQAGGSLRLSCAASGRIFSIYGMGWYRQAPGKERELVAVISGSVGITYYADSVKGRFTISRDNAKHTVYLQMNSLKPEDTAVYYCNAKVRRRKYDYWGQGTQVTVSS | polyreactivity (PSR sort gate) | high polyreactivity |
| QVQLVESGGGLVQAGGSLRLSCAASGGIVSINAMGWYRQAPGKERELVAAIRWNSGRTYYADSVKGRFTISRDNAKNTVYIQMNSLKPEDTAVYYCAVRDYISWEDYYWGQGTQVTVSS | polyreactivity (PSR sort gate) | high polyreactivity |
| QVQLVESGGGLVQAGGSLRLSCAASGFIFNLYAMGWYRQAPGKEREFVAGISYSGNTYYADSVKGRFTISRDNAKNTVYLQMNSLKPEDTAVYYCAARRGYNDGYWGQGTKVTVSS | polyreactivity (PSR sort gate) | high polyreactivity |

Could you now look at the following sequence, please?
Inquiry: Please look up its polyreactivity (PSR sort gate): QVQLVESGGGLVQAGGSLRLSCAASGITFYEYAMGWYRQAPGKERELVAAITSGGTTNYADSVKGRFTISRDNAKNTVYLQMNSLKPEDTAVYYCAKDEGEGYDYWGQGTQVTVSS
Reply text: low polyreactivity

---

Test: yeast display, Sf9 membrane polyspecificity reagent, FACS + sequencing; frameworks hold sequencing errors
Readout: polyreactivity (PSR sort gate)

| Residue String | Result |
| --- | --- |
| QVQLVDSGGGLVQAGGSLRLTCAASGSIFPRNVMGWYRHAPGKERELVAAISSRATRTYYADSVKGRFTISRDNAKNTVYLQMNSLKPEDTAVYYCAADRTLYSSGYYYWGQGSQVTVSS | high polyreactivity |
| QVQLVESGGGLVQAGGSLRLSCAASGRIFAGYAMGWYRQAPGKERELVARISRGDDSTYYADSVKGRFTISRDNAKNTVYLQMNSLKPEDTAFYFCAADYPDVVYLEYDYWGQGTQVTVSS | low polyreactivity |
| QVQLVESGGGLVQAGGSLRLSCAASGIIFWWYAMGWSRQAPGKERELVAAISGTGGSTYYADSVKGRFTISRDNAKNTVYLQMNSLKPEDTAVYYCAKRASPFWRGYDSWGQGTQVTVSS | low polyreactivity |
| QVQLVESGGGLVQAGGSLRLSCAASGRTFYRYAMGWYRQAPGKERELVAAITGGGGSTYYADSVKGRFTISRDNAKNTVYLQMNSLKPEDTAVYYCNRRSYGFISYNFWGQGTQVTVSS | high polyreactivity |

Proceed to the following item.
Inquiry: # polyreactivity (PSR sort gate) lookup, item QVQLVESGGGLVQAGGSLRLSCAASGLTFEVYAMGWYRQAPGKERELVAAISSGGGSTYYADSVKGRFTISRDNAKNTVYLQMNSLKPEDTAVYYCNAVAKLYYWRYDYWGQGTQVTVSS
Reply text: low polyreactivity
